Measured pIC50 by item
- Test system: TEL-JAK1-BaF3 (stably expressing JAK1 kinase)
- PROTOCOL: Cell proliferation, Cell Titer-Glo, TEL-JAK1-BaF3
- Type: cell-based
- SETUP CONDITIONS: Mus musculus; incubated for 72 hours
Notebook: values listed as pIC50 are -log10 of the concentration (mol/L).

Recorded pIC50, per entry:
Nc1ncnc2c1c(-c1ccc(Oc3ccccc3)cc1)nn2[C@@H]1CCCN(C(=O)[C@H](N)Cc2ccccc2)C1	5.70
Nc1ncnc2c1c(-c1ccc(Oc3ccccc3)cc1)nn2[C@@H]1CCCN(C(=O)[C@H](N)Cc2ccc(O)cc2)C1	6.40
CC(C)C[C@H](N)C(=O)N1CCC[C@@H](n2nc(-c3ccc(Oc4ccccc4)cc3)c3c(N)ncnc32)C1	6.28

The record that follows has no pIC50 shown yet.
Give the reported pIC50 for Nc1ncnc2c1c(-c1ccc(Oc3ccccc3)cc1)nn2[C@@H]1CCCN(C(=O)[C@H](N)Cc2c[nH]c3ccccc23)C1 (system: TEL-JAK1-BaF3 (stably expressing JAK1 kinase)). 6.57

----------
- Test system: MV4-11 (expressing FLT3/ITD mutant gene)
- PROTOCOL: Cell proliferation, Cell Titer-Glo, MV4-11
- Format: cell-based
- SETUP CONDITIONS: Homo sapiens, MV4-11; incubated for 72 hours; read-out: MV4-11 IC50
ASSAY ENDPOINT: pIC50
Worth noting: pIC50 values are minus log10 of concentrations stated in mol/L.

Use the examples below as a reference point.
NCC(=O)N1CC[C@@H](n2nc(-c3ccc(Oc4ccccc4)cc3)c3c(N)ncnc32)C1	6.76
CC(C)(C)OC(=O)NCC(=O)N1CCC[C@@H](n2nc(-c3ccc(Oc4ccccc4)cc3)c3c(N)ncnc32)C1	6.37
CC(C)C[C@H](N)C(=O)N1CCC[C@@H](n2nc(-c3ccc(Oc4ccccc4)cc3)c3c(N)ncnc32)C1	7.19

Any idea what pIC50 was measured for Nc1ncnc2c1c(-c1ccc(Oc3ccccc3)cc1)nn2[C@@H]1CCCN(C(=O)[C@H](N)CO)C1 ? 7.21

Do the same for CN1CCN(CC(=O)N2CCC[C@@H](n3nc(-c4ccc(Oc5ccccc5)cc4)c4c(N)ncnc43)C2)CC1 please 6.64

Okay, and CN(C)CC(=O)NC1CCC(n2nc(-c3ccc(Oc4ccccc4)cc3)c3c(N)ncnc32)CC1 (stereo not shown) ? 7.57

Same for CC(Cl)C(=O)N1CCC[C@@H](n2nc(-c3ccc(Oc4ccccc4)cc3)c3c(N)ncnc32)C1 (stereo partly shown) 6.01

Continue with NC(=O)CC[C@@H](N)C(=O)N1CCC[C@@H](n2nc(-c3ccc(Oc4ccccc4)cc3)c3c(N)ncnc32)C1 7.22

Subsequent entry: CCCC(=O)N1CCC[C@@H](n2nc(-c3ccc(Oc4ccccc4)cc3)c3c(N)ncnc32)C1 5.92

Try CC(O)[C@@H](N)C(=O)N1CCC[C@@H](n2nc(-c3ccc(Oc4ccccc4)cc3)c3c(N)ncnc32)C1 (stereo partly shown) next. 7.19

// query: CC(O)C(=O)N1CCC[C@@H](n2nc(-c3ccc(Oc4ccccc4)cc3)c3c(N)ncnc32)C1 (stereo partly shown) 6.49

----------
In this section, each of the compounds is paired with its reported pIC50.
- Test system: MV4-11 (expressing FLT3/ITD mutant gene)
- PROTOCOL: Cell proliferation, Cell Titer-Glo, MV4-11
- Type: cell-based
- SETUP CONDITIONS: Homo sapiens, MV4-11; incubated for 72 hours; read-out: MV4-11 IC50
Structures can show the parent of a compound that is named as a salt.
pIC50 field: float, defined as -log10 of concentration (mol/L).

CC(C)[C@@H](N)C(=O)NC1CCC(n2nc(-c3ccc(Oc4ccccc4)cc3)c3c(N)ncnc32)CC1 (some centres unmarked) [Compound 86, hydrochloride]	7.70
CS(=O)(=O)N1CCC[C@@H](n2nc(-c3ccc(Oc4ccccc4)cc3)c3c(N)ncnc32)C1	6.77

// moving on: another record for pIC50
Tell me the measured pIC50 of NC(=O)CC[C@H](N)C(=O)N1CCC[C@@H](n2nc(-c3ccc(Oc4ccccc4)cc3)c3c(N)ncnc32)C1 , please. 6.62
